- SUBJECT OF TEST: recombinant guanylate cyclase reporter cell line (Rattus norvegicus, UniProt P19686+P20595)
- Construct: expressed in transfected cells
- Sequence (P20595 1-619): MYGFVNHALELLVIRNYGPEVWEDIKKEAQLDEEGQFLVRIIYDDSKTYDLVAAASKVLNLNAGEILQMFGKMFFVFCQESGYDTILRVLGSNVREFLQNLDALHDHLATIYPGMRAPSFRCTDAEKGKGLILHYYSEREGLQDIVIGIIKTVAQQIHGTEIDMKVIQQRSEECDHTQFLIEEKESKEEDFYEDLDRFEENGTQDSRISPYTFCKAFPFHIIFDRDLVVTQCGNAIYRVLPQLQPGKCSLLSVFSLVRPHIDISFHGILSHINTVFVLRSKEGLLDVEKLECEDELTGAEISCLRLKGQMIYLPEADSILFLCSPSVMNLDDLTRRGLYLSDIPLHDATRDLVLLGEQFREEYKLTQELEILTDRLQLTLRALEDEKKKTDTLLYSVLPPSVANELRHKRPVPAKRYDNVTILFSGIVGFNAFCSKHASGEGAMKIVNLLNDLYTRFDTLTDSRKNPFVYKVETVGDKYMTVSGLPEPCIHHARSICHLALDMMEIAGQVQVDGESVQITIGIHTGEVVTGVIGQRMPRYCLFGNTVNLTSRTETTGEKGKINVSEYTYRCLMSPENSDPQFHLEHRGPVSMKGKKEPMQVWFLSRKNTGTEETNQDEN
- Sequence (P19686 1-690): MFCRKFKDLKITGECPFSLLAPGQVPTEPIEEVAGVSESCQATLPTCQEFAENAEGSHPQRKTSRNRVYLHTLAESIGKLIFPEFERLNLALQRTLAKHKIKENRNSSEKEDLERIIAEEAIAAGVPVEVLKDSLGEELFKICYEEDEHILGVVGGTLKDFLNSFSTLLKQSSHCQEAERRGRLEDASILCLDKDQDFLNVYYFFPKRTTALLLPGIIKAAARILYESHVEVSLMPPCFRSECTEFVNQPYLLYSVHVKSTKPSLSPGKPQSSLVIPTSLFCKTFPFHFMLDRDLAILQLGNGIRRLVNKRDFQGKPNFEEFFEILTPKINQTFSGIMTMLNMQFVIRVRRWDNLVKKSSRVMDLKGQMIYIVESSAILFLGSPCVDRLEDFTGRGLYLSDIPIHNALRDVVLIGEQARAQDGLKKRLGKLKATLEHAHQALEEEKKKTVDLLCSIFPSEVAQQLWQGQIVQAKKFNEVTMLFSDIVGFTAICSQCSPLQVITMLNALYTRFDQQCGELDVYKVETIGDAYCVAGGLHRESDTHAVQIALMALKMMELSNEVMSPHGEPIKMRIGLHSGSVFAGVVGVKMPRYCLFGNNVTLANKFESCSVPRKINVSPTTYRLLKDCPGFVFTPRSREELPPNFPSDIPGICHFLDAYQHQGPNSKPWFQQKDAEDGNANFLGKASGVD
- TEST: B-2. Action on recombinant guanylate cyclase reporter cell line
- Assay type: cell-based
- ASSAY SETUP: MEC = minimal effective concentration; in some cases mean values from individual determinations
Where a name gives a salt, the structure may show the parent alone.
READOUT: MEC (µM)

# annotated cases, reported MEC shown
>>> assay_result("Cc1nc2c(OCc3c(F)cccc3F)cccn2c1C(=O)NC(C)[C@@H](C)N (single isomer, unassigned) [Example 176]")
1.00
>>> assay_result("Cc1cc(OCc2c(F)cccc2F)c2nc(C)c(C(=O)N[C@H]3C[C@H]4CN(C)CCN4C3)n2c1")
0.30
>>> assay_result("Cc1cc(OCc2c(F)cccc2F)c2nc(C)c(C(=O)NC(CN)c3ccc4c(c3)OCCO4)n2c1 (racemic)")
0.30

[I] CCC(C)(N)CNC(=O)c1c(C)nc2c(OCc3c(F)ccc(F)c3F)cc(C)cn12 (single isomer, unassigned; enantiomer a) [Example 300, Hydrochloride]
[II] Cc1nc2c(OCc3c(F)cccc3F)cccn2c1C(=O)NC(CN)c1ccc(Cl)cc1 (racemic) [Example 14, Dihydrochloride]
[III] Cc1cc(OCc2c(F)cccc2F)c2nc(C)c(C(=O)NC3(C)CCC3(C)N)n2c1 (racemic) [Example 335]
Prompt line: Arrange by MEC, high to low. Return the labels ranked in the requested order, please.
Response line: II, III, I
